system: SH-SY5Y human neuroblastoma cell line; experiment: Oxidative stress measurement (dihydroethidium, superoxide) in SH-SY5Y, salsolinol-induced model of PD; assay type: cell-based; conditions: Homo sapiens, SH-SY5Y; 10 μM compound with SAL 500 μM, 6 h; read-out: Oxidative stress (% of control)
In this section we review reported activity at 10 µM values for a set of compounds.
// note: answer is a bare numeric in %

Check out these entries, answers already filled in.
Nc1nc(NCCc2ccc(O)cc2)nc2nc(-c3ccco3)nn12 [ZM241385, reference compound]; 102
c1ccc(Cn2cnc3c(N4CCCC4)nc(N4CCCCC4)nc32)cc1; 127
c1ccc(Cn2cnc3c(N4CCCCC4)nc(N4CCCC4)nc32)cc1; 238
Clc1cccc(Cl)c1Cn1cnc2c(N3CCCC3)nc(N3CCCC3)nc21; 179
c1ccc(Cn2cnc3c(N4CCSCC4)nc(N4CCSCC4)nc32)cc1; 135

Quick note, activity at 10 µM for c1ccc(Cn2cnc3c(N4CCOCC4)nc(N4CCOCC4)nc32)cc1 landed at 155

Provenance of the data: patent US12319694B2
